From: patent US20040005537A1

Tested on: rat heart tissue
Test: GENECALLING differential gene expression analysis after dosing of serotonin modulating agents
Assay type: in vivo, Sprague Dawley rats
Conditions: CARDIOTOX 86, GenBank A1243266
Protocol: Control animals received sterile water or canola oil. The animals were sacrificed 24 hours following the last dose. Liver tissue was dissected from the animals, and total RNA was recovered from the dissected tissue. cDNA was prepared and the resulting samples were processed through using GENECALLING™ differential expression analysis as described in U.S. Pat. No. 5,871,697 and in Shimkets et al., Nature Biotechnology 17:798-803 (1999). […]
attribute measured: Effects on Transcription Level: Aconitase
Please state the number and follow it with the unit.

Qu. Please list Effects on Transcription Level: Aconitase recorded for the compound "CCN[C@@H](C)Cc1cccc(C(F)(F)F)c1"
Ans. −3.1 fold

For each of the compounds below, state Effects on Transcription Level: Aconitase.
1. CC(C)CC(N(C)C)C1(c2ccc(Cl)cc2)CCC1 (stereo not drawn)
2. CNCCC(Oc1ccc(C(F)(F)F)cc1)c1ccccc1 (stereo not drawn)
3. CN1C[C@H](C(=O)N[C@]2(C)O[C@@]3(O)[C@@H]4CCCN4C(=O)[C@H](Cc4ccccc4)N3C2=O)C[C@@H]2c3cccc4[nH]cc(c34)C[C@H]21 [dihydroergotamine]

Ans.
1. −2.9 fold
2. −3.9 fold
3. −3.2 fold

I'm hoping you can list Effects on Transcription Level: Aconitase for every compound here, please.
1. CNS(=O)(=O)Cc1ccc2[nH]cc(CCN(C)C)c2c1
2. CCNC(C)Cc1cccc(C(F)(F)F)c1 (stereo not drawn)

Ans.
1. −1.9 fold
2. −3.4 fold
